- protocol_notes: Compound solubility in DMSO
- Assay type: physicochemical
- recorded_conditions: organic solvent or mixture, turbidity at 540 nm, read-out: concentration up to which the compound remained soluble in DMSO
readout_label: solubility at 1 h

## Task Could you share which solubility at 1 h value was measured for CC(C)(C)c1ccc([S-])cc1.CCP(CC)CC.[Au+] ?
## Result ≥ 50 µg/mL

* * *

readout_label: IC50 (µM)
Give the quantity in µM, number only.

## Task # query: IC50 | item CC(=O)OC[C@H]1O[C@@H]([S-])[C@H](OC(C)=O)[C@@H](OC(C)=O)[C@@H]1OC(C)=O.CCP(CC)CC.[Au+] | system: hERG channel (Homo sapiens, UniProt Q12809)
## Result 9.68

* * *

- protocol_notes: Compound solubility in DMSO
- Assay type: physicochemical
- recorded_conditions: organic solvent or mixture, turbidity at 540 nm, read-out: concentration at which reduced solubility began in DMSO
readout_label: solubility at 1 h (µg/mL)
Please reply with the bare figure in µg/mL and do not write the unit itself.

## Task # query: solubility at 1 h of entry CC(C)(C)c1ccc(S(=O)[O-])cc1.[Au+].c1ccc(P(c2ccccc2)c2ccccc2)cc1
## Result 6.5

* * *

- protocol_notes: Compound solubility in PBS
- Assay type: physicochemical
- recorded_conditions: aqueous buffer, kinetic from dmso stock; PBS, 2 Hour; highest concentration with no detectable precipitate; read-out: Solubility Limit
readout_label: solubility at 2 h (µM)
// return numeric value only (unit: µM, not printed)

## Task GET /values?readout=solubility at 2 h&item= COC(=O)[C@H]1[C@H]2C[C@@H]3c4[nH]c5cc(OC)ccc5c4CCN3C[C@H]2C[C@@H](OC(=O)c2cc(OC)c(OC)c(OC)c2)[C@@H]1OC [Reserpine]
## Result 7.81

* * *

- protocol_notes: Immortalized cell line toxicity (WST-1), the three cell lines together
- Assay type: cell-based
- recorded_conditions: human, hkc, hepg2, a549 cells, HKC, HepG2, A549; read-out: toxicity to cell lines as multiple of the MIC
readout_label: selectivity ratio at 24 h
Format: numeric value only, no unit, no commentary.

## Task Give its selectivity ratio at 24 h value. Item: CC(C)(C)c1ccc(S(=O)[O-])cc1.[Au+].c1ccc(P(c2ccccc2)c2ccccc2)cc1
## Result 16

* * *

- protocol_notes: Compound solubility in PBS
- Assay type: physicochemical
- recorded_conditions: pbs, aqueous buffer; read-out: Solubility in PBS converted to mass concentration
- Description: Compound solubility in PBS. Compound solubility was measured in PBS. Briefly, serial dilutions of test compounds were prepared in DMSO at 100x the final concentration. Test compound solutions were diluted 100-fold into PBS in a 96-well plate and mixed. After 2 h, the presence of precipitate was detected by measuring absorbance at 540 nm.
For each entry below, report its solubility at 2 h value.
Answer with a number only, understood to be in µg/mL.

## Task Quick one: solubility at 2 h for CC(C)(C)c1ccc(S(=O)[O-])cc1.[Au+].c1ccc(P(c2ccccc2)c2ccccc2)cc1 ?
## Result 2.03

## Task Endpoint output: solubility at 2 h of CC(C)(C)c1ccc([S-])cc1.CCP(CC)CC.[Au+] . Value?
## Result 1.49

* * *

- protocol_notes: Compound solubility in PBS
- Type: physicochemical
- recorded_conditions: aqueous buffer; PBS, 2 Hour; highest concentration with no detectable precipitate; read-out: Solubility Limit
readout_label: solubility at 2 h (µM)
Report as a plain number; the unit µM is understood.

## Task Consider the molecule CC(C)(C)c1ccc([S-])cc1.CCP(CC)CC.[Au+] and give its measured solubility at 2 h.
## Result 3.13

## Task What does the record list as solubility at 2 h for CC(C)(C)c1ccc(S(=O)[O-])cc1.[Au+].c1ccc(P(c2ccccc2)c2ccccc2)cc1 ?
## Result 3.13

* * *

- Test system: S. aureus MW2
- protocol_notes: Broth microdilution MIC, S. aureus MW2
- Format: cell-based, Staphylococcus aureus
- recorded_conditions: S. aureus MW2 (MRSA), broth microdilution, 18 h
- Method: In vitro antibiotic susceptibilities were determined using the broth microdilution assay established by the Clinical and Laboratory Standards Institute ([Clinical and Laboratory Standards Institute, 2012]). […] Post incubation, OD600 was measured using a Vmax microplate reader (Molecular Devices, San Jose, CA), and the lowest concentration of test compound that suppressed bacterial growth was reported as the MIC. […]
readout_label: MIC

## Task # value lookup — system S. aureus MW2, readout MIC, item CC(=O)OC[C@H]1O[C@@H]([S-])[C@H](OC(C)=O)[C@@H](OC(C)=O)[C@@H]1OC(C)=O.CCP(CC)CC.[Au+]
## Result 0.25 µg/mL

## Task Fill in the recorded MIC for this compound, with S. aureus MW2 as test system: CC(C)(C)c1ccc(S(=O)O)cc1
## Result > 128 µg/mL

## Task Fill in the recorded MIC for this compound, with S. aureus MW2 as test system: CCP(=O)(CC)CC [C3, triethylphosphine oxide]
## Result > 128 µg/mL

## Task # value lookup — system S. aureus MW2, readout MIC, item O=P(c1ccccc1)(c1ccccc1)c1ccccc1 [C4, Triphenylphosphine oxide]
## Result > 128 µg/mL

## Task Return MIC measured with S. aureus MW2 given this compound: CC(C)(C)c1ccc(S)cc1
## Result > 128 µg/mL

* * *

- target_of_assay: hERG channel (Homo sapiens)
- Sequence (Q12809 whole entry): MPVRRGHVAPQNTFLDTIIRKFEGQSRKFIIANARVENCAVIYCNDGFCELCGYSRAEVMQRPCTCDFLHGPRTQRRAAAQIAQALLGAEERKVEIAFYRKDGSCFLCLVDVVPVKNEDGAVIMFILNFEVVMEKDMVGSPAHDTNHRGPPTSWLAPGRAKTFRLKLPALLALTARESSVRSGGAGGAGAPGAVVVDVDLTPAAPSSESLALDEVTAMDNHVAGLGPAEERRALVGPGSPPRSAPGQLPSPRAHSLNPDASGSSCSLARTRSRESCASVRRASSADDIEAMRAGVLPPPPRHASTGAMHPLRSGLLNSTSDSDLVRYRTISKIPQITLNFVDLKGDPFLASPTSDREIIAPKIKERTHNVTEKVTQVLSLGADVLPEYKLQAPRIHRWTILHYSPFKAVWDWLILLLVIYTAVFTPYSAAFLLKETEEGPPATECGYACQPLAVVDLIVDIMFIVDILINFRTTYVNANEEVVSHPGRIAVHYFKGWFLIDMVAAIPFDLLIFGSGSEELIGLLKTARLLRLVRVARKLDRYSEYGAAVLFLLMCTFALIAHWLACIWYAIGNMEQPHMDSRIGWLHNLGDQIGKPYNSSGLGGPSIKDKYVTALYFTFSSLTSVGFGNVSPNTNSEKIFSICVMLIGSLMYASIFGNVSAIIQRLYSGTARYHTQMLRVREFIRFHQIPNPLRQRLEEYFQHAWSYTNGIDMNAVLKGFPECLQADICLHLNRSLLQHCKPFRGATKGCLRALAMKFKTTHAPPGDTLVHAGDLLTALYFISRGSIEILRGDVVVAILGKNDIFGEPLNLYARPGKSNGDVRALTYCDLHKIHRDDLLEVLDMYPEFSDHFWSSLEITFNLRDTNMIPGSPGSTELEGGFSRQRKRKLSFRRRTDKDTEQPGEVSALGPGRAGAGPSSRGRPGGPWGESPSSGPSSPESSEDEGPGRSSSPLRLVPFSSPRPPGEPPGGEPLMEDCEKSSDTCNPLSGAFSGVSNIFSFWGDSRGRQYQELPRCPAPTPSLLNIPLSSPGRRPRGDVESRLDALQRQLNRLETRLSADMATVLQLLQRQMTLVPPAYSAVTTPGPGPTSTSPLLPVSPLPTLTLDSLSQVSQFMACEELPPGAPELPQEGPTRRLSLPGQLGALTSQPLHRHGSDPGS
- protocol_notes: hERG measurement (QPatch HTX patch clamp)
readout_label: IC50 (µM)
The figure you give is taken to be in µM; do not add the unit.

## Task Quick check: IC50 on hERG channel (Homo sapiens), item CC(C)(C)c1ccc(S(=O)[O-])cc1.[Au+].c1ccc(P(c2ccccc2)c2ccccc2)cc1 ?
## Result 3.16
